Where do the numbers come from? From patent US10428140B2.

- measured_target: T1, human EphA2 (Homo sapiens, UniProt P29317)
- T1 construct: a protein of the extracellular region of each human Eph receptor fused with the SEAP protein and the His tag; made in house; host or cells: Expi293F cells (culture supernatant)
- T1 sequence (P29317 24-537 limits assumed): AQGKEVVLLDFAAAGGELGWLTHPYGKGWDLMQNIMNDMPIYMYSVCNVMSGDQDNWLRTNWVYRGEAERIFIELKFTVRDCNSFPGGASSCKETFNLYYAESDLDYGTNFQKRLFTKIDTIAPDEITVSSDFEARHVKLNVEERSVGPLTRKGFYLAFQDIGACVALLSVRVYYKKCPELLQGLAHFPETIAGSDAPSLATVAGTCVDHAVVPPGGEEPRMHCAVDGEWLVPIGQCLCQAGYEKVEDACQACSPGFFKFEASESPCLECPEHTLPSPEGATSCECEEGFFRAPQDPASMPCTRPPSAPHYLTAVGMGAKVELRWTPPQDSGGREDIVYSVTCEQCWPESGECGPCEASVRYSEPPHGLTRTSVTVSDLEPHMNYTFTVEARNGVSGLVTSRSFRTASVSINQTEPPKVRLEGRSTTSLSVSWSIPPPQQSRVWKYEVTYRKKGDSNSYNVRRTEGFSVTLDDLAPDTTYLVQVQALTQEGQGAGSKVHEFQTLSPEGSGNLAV
- assay_procedure: Selectivity ELISA of humanized antibodies for human Eph receptor
- Type: binding
- details: coated protein 1 nM
metric: hEphA2-SEAP-: absorbance at 450 nm, percentage with respect to hEphA4-SEAP-His as 100% (%)
Provide only the numeric value, understood in %.

- molecule: "88 (antibody, V domains shown, constant regions without entry; synthetic humanized antibody light chain variable region sequence; synthetic humanized antibody heavy chain variable region sequence) VL: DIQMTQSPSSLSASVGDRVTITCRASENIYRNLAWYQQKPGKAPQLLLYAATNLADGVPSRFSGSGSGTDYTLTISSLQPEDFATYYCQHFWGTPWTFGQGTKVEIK VH: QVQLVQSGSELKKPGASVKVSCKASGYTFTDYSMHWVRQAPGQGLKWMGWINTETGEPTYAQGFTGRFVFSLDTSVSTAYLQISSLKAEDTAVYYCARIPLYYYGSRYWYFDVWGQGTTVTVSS"
  output_unit: "%"
  assay_value: 5.8

Problem: Indicate its recorded hEphA2-SEAP-: absorbance at 450 nm, percentage with respect to hEphA4-SEAP-His as 100%; the molecule in question is 135 (antibody, V domains shown, synthetic humanized antibody heavy chain variable region sequence; synthetic humanized antibody light chain variable region sequence) VH: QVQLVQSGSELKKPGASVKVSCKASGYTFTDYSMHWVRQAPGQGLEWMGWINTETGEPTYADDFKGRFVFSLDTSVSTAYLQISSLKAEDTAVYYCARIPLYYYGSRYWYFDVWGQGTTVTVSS VL: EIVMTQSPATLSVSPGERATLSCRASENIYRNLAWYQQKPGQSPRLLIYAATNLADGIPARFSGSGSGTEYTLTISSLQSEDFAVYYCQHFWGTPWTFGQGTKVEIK
Solution: 5.0

Problem: Please look at this molecule and report its hEphA2-SEAP-: absorbance at 450 nm, percentage with respect to hEphA4-SEAP-His as 100%: 158 (antibody, V domains shown, synthetic humanized antibody heavy chain variable region sequence; synthetic humanized antibody light chain variable region sequence) VH: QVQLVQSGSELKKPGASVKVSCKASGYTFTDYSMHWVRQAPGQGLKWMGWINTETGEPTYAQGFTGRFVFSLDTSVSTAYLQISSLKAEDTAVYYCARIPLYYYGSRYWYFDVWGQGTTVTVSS VL: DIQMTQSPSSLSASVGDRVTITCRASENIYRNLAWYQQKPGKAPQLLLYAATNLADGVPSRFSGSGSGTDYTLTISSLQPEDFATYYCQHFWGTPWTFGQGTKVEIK
Solution: 6.7

Problem: Name the recorded hEphA2-SEAP-: absorbance at 450 nm, percentage with respect to hEphA4-SEAP-His as 100% of the molecule listed here: 92 (antibody, V domains shown, constant regions without entry; synthetic humanized antibody light chain variable region sequence; synthetic humanized antibody heavy chain variable region sequence) VL: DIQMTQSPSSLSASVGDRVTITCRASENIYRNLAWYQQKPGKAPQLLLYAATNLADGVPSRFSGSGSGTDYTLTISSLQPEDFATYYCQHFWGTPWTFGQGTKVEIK VH: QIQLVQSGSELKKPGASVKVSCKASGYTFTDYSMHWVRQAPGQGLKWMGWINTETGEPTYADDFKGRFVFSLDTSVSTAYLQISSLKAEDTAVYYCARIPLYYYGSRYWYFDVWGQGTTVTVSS
Solution: 6.9
